// provenance: patent US20200024330A1

biological target: HIV-1 JR-CSF Env I414A (HIV-1 (isolate JR-CSF)) (UniProt P20871); assay: cell-based or functional assay
# Fold IC50 increase relative to wild-type listing for each entry below
Report as a plain number; the unit fold is understood.

Reference set, count: 2
{"columns": ["Binder", "Fold IC50 increase relative to wild-type (fold)"],
 "data": [
  ["PGT-127 (antibody, V domains shown) VH: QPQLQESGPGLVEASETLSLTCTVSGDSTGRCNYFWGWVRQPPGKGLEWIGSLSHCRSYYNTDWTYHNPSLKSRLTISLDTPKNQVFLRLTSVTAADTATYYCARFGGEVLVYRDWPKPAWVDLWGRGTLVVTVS VL: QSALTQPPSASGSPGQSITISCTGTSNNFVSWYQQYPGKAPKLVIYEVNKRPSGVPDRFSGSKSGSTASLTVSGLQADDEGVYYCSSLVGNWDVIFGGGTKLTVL", 2.2],
  ["PGT-126 (antibody, V domains shown) VH: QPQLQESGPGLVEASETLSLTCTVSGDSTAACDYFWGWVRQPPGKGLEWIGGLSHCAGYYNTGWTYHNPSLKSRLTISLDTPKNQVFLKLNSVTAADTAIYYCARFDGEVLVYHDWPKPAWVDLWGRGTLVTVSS VL: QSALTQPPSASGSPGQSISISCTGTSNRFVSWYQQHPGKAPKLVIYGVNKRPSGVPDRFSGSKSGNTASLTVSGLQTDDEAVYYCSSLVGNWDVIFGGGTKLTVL", 0.4]
]}

The record that follows has no Fold IC50 increase relative to wild-type shown yet.
Report Fold IC50 increase relative to wild-type, nothing else, for this binder: PGT-131 (antibody, V domains shown) VH: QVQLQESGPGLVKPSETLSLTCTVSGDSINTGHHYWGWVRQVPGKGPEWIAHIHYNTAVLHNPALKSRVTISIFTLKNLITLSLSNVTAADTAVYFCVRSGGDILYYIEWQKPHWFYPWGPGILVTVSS VL: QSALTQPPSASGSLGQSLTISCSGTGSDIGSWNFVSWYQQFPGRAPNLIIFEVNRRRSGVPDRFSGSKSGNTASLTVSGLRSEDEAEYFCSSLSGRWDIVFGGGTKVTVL
1
